Molecular target: IGF-1R(h), activated (Homo sapiens, UniProt P08069)
Construct: purchased Millipore
Sequence (P08069 959-1367 limits assumed): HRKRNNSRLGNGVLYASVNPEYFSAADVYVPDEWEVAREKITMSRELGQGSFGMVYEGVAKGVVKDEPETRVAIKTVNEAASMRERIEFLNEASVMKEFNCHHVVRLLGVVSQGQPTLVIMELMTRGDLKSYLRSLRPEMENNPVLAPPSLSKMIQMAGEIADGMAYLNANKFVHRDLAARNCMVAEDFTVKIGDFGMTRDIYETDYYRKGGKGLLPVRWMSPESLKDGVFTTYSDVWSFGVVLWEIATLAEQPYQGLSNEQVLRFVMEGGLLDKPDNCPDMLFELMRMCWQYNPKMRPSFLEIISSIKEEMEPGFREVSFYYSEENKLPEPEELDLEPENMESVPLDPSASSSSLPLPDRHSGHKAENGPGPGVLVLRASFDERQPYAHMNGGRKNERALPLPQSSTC
Experiment: Kinase Profiling Assay
Format: biochemical
Conditions: peptide 100 μM
Description: Every kinase activity measurement was conducted in duplicate. Specifically, in these assays, a positively charged substrate is phosphorylated with a radiolabeled phosphate group from an ATP if the kinase is not inhibited by an inhibitor peptide. The positively charged substrate then is attracted to a negatively charged filter membrane, quantified with a scintillation counter, and compared to a 100% activity control. […]
No end group written: not given here.
Readout label: % activity (%)

- Seq: "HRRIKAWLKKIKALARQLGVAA (Mammal) [MMI-0500]"
  Measurement unit: "%"
  Meas value: 45
- Seq: "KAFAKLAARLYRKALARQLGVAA [MMI-0400]"
  Measurement unit: "%"
  Meas value: 77
- Seq: "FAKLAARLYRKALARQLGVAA [MMI-0300]"
  Measurement unit: "%"
  Meas value: 80
- Seq: "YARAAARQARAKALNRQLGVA (Mammal) [MMI-0200]"
  Measurement unit: "%"
  Meas value: 94
- Seq: "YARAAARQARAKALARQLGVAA [MMI-0100]"
  Measurement unit: "%"
  Meas value: 126

----------
Biological target: Pim-3(h) (Homo sapiens)
Test: Kinase Profiling Assay
Type: biochemical
Conditions: peptide 100 μM
The following sequences are listed with their measured % activity values.
Readout label: % activity (%)

- Seq: "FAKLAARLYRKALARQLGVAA [MMI-0300]"
  Readout label: "% activity"
  Meas value: 80
- Seq: "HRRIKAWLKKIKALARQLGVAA (Mammal) [MMI-0500]"
  Readout label: "% activity"
  Meas value: 37
- Seq: "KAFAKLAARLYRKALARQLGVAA [MMI-0400]"
  Readout label: "% activity"
  Meas value: 80
- Seq: "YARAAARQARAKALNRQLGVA (Mammal) [MMI-0200]"
  Readout label: "% activity"
  Meas value: 94

----------
Each record here notes measured % activity.
Target: Fms(h) (Homo sapiens, UniProt P07333)
Test: Kinase Profiling Assay
Format: biochemical
Settings: peptide 100 μM
No end group written: not given here.

- Seq: "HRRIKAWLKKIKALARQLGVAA (Mammal) [MMI-0500]"
  Test target: "Fms(h) (Homo sapiens, UniProt P07333)"
  % activity: "14%"
- Seq: "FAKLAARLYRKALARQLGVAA [MMI-0300]"
  Test target: "Fms(h) (Homo sapiens, UniProt P07333)"
  % activity: "45%"
- Seq: "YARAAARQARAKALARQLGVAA [MMI-0100]"
  Test target: "Fms(h) (Homo sapiens, UniProt P07333)"
  % activity: "89%"
- Seq: "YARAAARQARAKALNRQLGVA (Mammal) [MMI-0200]"
  Test target: "Fms(h) (Homo sapiens, UniProt P07333)"
  % activity: "92%"
- Seq: "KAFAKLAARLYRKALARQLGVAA [MMI-0400]"
  Test target: "Fms(h) (Homo sapiens, UniProt P07333)"
  % activity: "37%"

----------
// reported % activity per item
Target: SAPK2a(T106M)(h) (Homo sapiens, UniProt Q16539, T106M)
Construct: purchased Millipore
Sequence (Q16539 whole entry T106M): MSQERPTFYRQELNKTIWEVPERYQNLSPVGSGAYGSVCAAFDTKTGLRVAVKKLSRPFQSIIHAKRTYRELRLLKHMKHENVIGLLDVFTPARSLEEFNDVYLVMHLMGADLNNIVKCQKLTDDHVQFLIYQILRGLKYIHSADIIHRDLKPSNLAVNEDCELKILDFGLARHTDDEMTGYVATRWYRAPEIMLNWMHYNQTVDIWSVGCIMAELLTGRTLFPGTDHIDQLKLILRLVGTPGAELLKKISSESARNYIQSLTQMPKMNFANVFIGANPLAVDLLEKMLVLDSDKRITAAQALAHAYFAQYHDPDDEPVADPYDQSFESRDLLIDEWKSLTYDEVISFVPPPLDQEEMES
Assay: Kinase Profiling Assay
Type: biochemical
Settings: peptide 100 μM
No end group written: not given here.

- Seq: "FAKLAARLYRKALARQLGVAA [MMI-0300]"
  % activity, %: 97
- Seq: "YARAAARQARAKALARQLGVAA [MMI-0100]"
  % activity, %: 101
- Seq: "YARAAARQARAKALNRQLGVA (Mammal) [MMI-0200]"
  % activity, %: 100
- Seq: "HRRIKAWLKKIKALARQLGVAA (Mammal) [MMI-0500]"
  % activity, %: 32
- Seq: "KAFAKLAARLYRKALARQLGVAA [MMI-0400]"
  % activity, %: 99
